Sourced from ChEMBL document CHEMBL4130387

Assay: Plasma concentration in CD1 mouse at 21 mg/kg, po after 1 hr by UPLC-MS/MS analysis
Format: ADME, organism-based
Endpoint name: concentration at 1 h
A complete answer gives the number followed by the unit.

Prompt: Give the value of concentration at 1 h reported for the following: O=C(C1CCCCC1)N1CC2C3CCC(C4CC34)C2C1 (stereo unspecified)
Completion: 10.3 ng/mL

====

Test: AUC (infinity) in CD1 mouse at 21 mg/kg, po by UPLC-MS/MS analysis
Format: ADME, organism-based
Parameters: dose 21 mg/kg, time infinity, route oral
Settings: in vivo
Endpoint name: AUC(0-inf)

Prompt: Report AUC(0-inf) for O=C(C1CCCCC1)N1CC2C3CCC(C4CC34)C2C1 (stereo unspecified)
Completion: 40 ng·h/mL

====

Assay: Apparent half-life of the terminal disposition phase in CD1 mouse at 21 mg/kg, po by UPLC-MS/MS analysis
Type: ADME, organism-based
Conditions: in vivo, read-out: t1/2 lambda z (converted)
Endpoint name: half-life (min)
API: value field is a number in min; no unit string.

Prompt: Return half-life (reported value) for this compound: O=C(C1CCCCC1)N1CC2C3CCC(C4CC34)C2C1 (stereo unspecified)
Completion: 46.3

====

Attribute: Papp
Assay: Effective permeability by PAMPA
Assay type: ADME
Conditions: read-out: Peff

Prompt: Give recorded Papp. O=C(C1CCCCC1)N1CC2C3CCC(C3)C2C1 (configuration not stated)
Completion: 52 nm/s

Prompt: Please report the measured Papp for O=C(C1CCCCC1)N1CC2C3CCC(C4CC34)C2C1 (configuration not stated)
Completion: > 300 nm/s

====

Experiment: Plasma concentration in CD1 mouse at 21 mg/kg, po after 0.5 hrs by UPLC-MS/MS analysis
Type: ADME, organism-based
Endpoint name: concentration at 0.5 h (ng/mL)
Reply with just the number (in ng/mL).

Prompt: Name the recorded concentration at 0.5 h of the compound listed here: O=C(C1CCCCC1)N1CC2C3CCC(C4CC34)C2C1 (stereo unspecified)
Completion: 44.6

====

Experiment: Apparent oral clearance in CD1 mouse at 21 mg/kg, po by UPLC-MS/MS analysis
Assay type: ADME, organism-based
Settings: in vivo
Endpoint name: CL/F (L/h/kg)
Report only the number, with the unit L/h/kg understood.

Prompt: Identify measured CL/F associated with O=C(C1CCCCC1)N1CC2C3CCC(C4CC34)C2C1 (stereo unspecified)
Completion: 525

====

Experiment: Apparent volume of distribution during terminal phase in CD1 mouse at 21 mg/kg, po by UPLC-MS/MS analysis
Type: ADME, organism-based
Details: in vivo, read-out: Vz/F
Endpoint name: Vd/F (L/kg)
Reply with just the number (in L/kg).

Prompt: // fetch Vd/F given entry O=C(C1CCCCC1)N1CC2C3CCC(C4CC34)C2C1 (stereo unspecified)
Completion: 583

====

Test: Stability in mouse liver microsomes at 10 uM after 30 mins by LC-MS/MS analysis
Type: ADME, microsome
Conditions: read-out: Stability
Endpoint name: remaining at 0.5 h, 10 µM
Your answer should be a number followed by the unit of measure.

Prompt: Give remaining at 0.5 h, 10 µM for O=C(C1CCCCC1)N1CC2C3CCC(C4CC34)C2C1 (stereo unspecified)
Completion: 93%

====

Assay: Elimination rate constant in CD1 mouse at 21 mg/kg, po by UPLC-MS/MS analysis
Type: ADME, organism-based
Settings: in vivo
Endpoint name: k el
A complete answer gives the number and then names the unit.

Prompt: Indicate its recorded k el; the molecule in question is O=C(C1CCCCC1)N1CC2C3CCC(C4CC34)C2C1 (stereo unspecified)
Completion: 0.00025 s⁻¹
